Quick reference: pIC50 of the listed items.
# Target: ADAM17 (TACE) (Homo sapiens, UniProt P78536)
# Sequence (P78536 215-477 limits assumed): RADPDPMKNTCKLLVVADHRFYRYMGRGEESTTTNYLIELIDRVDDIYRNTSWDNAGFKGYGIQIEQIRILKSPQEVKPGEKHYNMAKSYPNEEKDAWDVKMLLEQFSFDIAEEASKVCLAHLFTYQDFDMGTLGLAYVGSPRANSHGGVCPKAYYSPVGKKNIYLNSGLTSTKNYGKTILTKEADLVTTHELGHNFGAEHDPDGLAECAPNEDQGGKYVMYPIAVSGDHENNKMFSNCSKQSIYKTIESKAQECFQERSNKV
# Procedure summary: TACE fluorometric inhibition assay (Enzo kit BML-AK310)
# Assay type: biochemical
# Run parameters: quenched fluorogenic peptide, ex/em 320/420 nm; read-out: TACE IC50 class
pIC50: −log10 of the molar value.

Compound: O=C(NO)[C@H]1[C@@H]2CC[C@H](CN1S(=O)(=O)c1ccc(Oc3ccc(F)cc3)nc1)N2C(=O)N1CCOCC1 [Example 68]
Target: ADAM17 (TACE) (Homo sapiens, UniProt P78536)
pIC50: 5.00 to 6.00
//
Compound: COCCOC(=O)N1[C@@H]2CC[C@H]1[C@H](C(=O)NO)N(S(=O)(=O)c1ccc(OC3CCN(C(C)C)CC3)nc1)C2 [Example 75]
Target: ADAM17 (TACE) (Homo sapiens, UniProt P78536)
pIC50: 5.00 to 6.00
//
Compound: CC(C)Oc1ccc(Oc2ccc(S(=O)(=O)N3C[C@H]4CC[C@@H]([C@@H]3C(=O)NO)N4C(=O)C(C)C)cn2)cc1 [Example 60]
Target: ADAM17 (TACE) (Homo sapiens, UniProt P78536)
pIC50: < 5.00
//
Compound: COCCOC(=O)N1[C@@H]2CC[C@H]1[C@H](C(=O)NO)N(S(=O)(=O)c1ccc(Oc3cnn(C)c3)nc1)C2 [Example 36]
Target: ADAM17 (TACE) (Homo sapiens, UniProt P78536)
pIC50: 6.00 to 7.30
//
Compound: COCCOC(=O)N1[C@@H]2CC[C@H]1[C@H](C(=O)NO)N(S(=O)(=O)c1ccc(Oc3cnn(C)c3)c(F)c1)C2 [Example 41]
Target: ADAM17 (TACE) (Homo sapiens, UniProt P78536)
pIC50: 6.00 to 7.30
//
Compound: COCCOC(=O)N1[C@@H]2CC[C@H]1[C@H](C(=O)NO)N(S(=O)(=O)c1ccc(Oc3ccc(Cl)cc3)nc1)C2 [Example 8]
Target: ADAM17 (TACE) (Homo sapiens, UniProt P78536)
pIC50: 6.00 to 7.30
//
Compound: O=C(NO)[C@H]1[C@@H]2CC[C@H](CN1S(=O)(=O)c1ccc(Oc3ccc(OC(F)(F)F)cc3)nc1)N2C(=O)N1CCOCC1 [Example 70]
Target: ADAM17 (TACE) (Homo sapiens, UniProt P78536)
pIC50: 5.00 to 6.00
//
Compound: CC(C)Oc1ccc(Oc2ccc(S(=O)(=O)N3C[C@H]4CC[C@@H]([C@@H]3C(=O)NO)N4C(=O)C(C)(C)C)cn2)cc1 [Example 61]
Target: ADAM17 (TACE) (Homo sapiens, UniProt P78536)
pIC50: < 5.00
//
Compound: COCCOC(=O)N1[C@@H]2CC[C@H]1[C@H](C(=O)NO)N(S(=O)(=O)c1cc(F)c(Oc3cnn(C)c3)c(F)c1)C2 [Example 42]
Target: ADAM17 (TACE) (Homo sapiens, UniProt P78536)
pIC50: 6.00 to 7.30
//
Compound: CCN1CCC(Oc2ccc(S(=O)(=O)N3C[C@H]4CC[C@@H]([C@@H]3C(=O)NO)N4C(=O)OCCOC)cn2)CC1 [Example 74]
Target: ADAM17 (TACE) (Homo sapiens, UniProt P78536)
pIC50: < 5.00
//
Compound: COCCOC(=O)N1[C@@H]2CC[C@H]1[C@H](C(=O)NO)N(S(=O)(=O)c1ccc(Oc3ccc(F)cc3)c(F)c1)C2 [Example 5]
Target: ADAM17 (TACE) (Homo sapiens, UniProt P78536)
pIC50: 6.00 to 7.30
//
Compound: COCCOC(=O)N1[C@@H]2CC[C@H]1[C@H](C(=O)NO)N(S(=O)(=O)c1ccc(Oc3ccc(F)c(F)c3)nc1)C2 [Example 22]
Target: ADAM17 (TACE) (Homo sapiens, UniProt P78536)
pIC50: 6.00 to 7.30
//
Compound: COCCOC(=O)N1[C@@H]2CC[C@H]1[C@H](C(=O)NO)N(S(=O)(=O)c1ccc(Oc3ccc(OCF)cc3)nc1)C2 [Example 43]
Target: ADAM17 (TACE) (Homo sapiens, UniProt P78536)
pIC50: 5.00 to 6.00

The reported numbers originate from patent US20250215010A1.
